// data source = patent US12377110B2

# assay.notes: Study No. 15-4 toxicokinetics of fospropofol and propofol in plasma
# Assay type: in vivo, Beagle dogs
# condition.details: female, beagle, dog, plasma, po, 160 mg/kg, oral gavage fospropofol disodium; Female; 160 mg/kg; Day 14; read-out: Fospropofol Tmax
reported.endpoint: Tmax

{"columns": ["smiles.structure", "meas.value"],
 "data": [
  ["CC(C)c1cccc(C(C)C)c1OCOP(=O)(O)O", "15 to 60 min"]
]}

====

# assay.notes: Study No. 15-3 toxicokinetics of fospropofol and propofol in plasma
# Format: in vivo, Sprague-Dawley rats
# condition.details: male, Sprague-Dawley, rat, plasma, po, 250 mg/kg, oral gavage fospropofol disodium; Male; 250 mg/kg; Day 1; read-out: Fospropofol Cmax

{"columns": ["smiles.structure", "Cmax [ng/mL]"],
 "data": [
  ["CC(C)c1cccc(C(C)C)c1OCOP(=O)(O)O", 8510]
]}

====

# assay.notes: Study A16 Part 1: PK of single ascending oral doses of fospropofol disodium (200 to 2000 mg), fasted healthy adults
# Assay type: in vivo, human
# condition.details: both sexes, human, plasma; oral fospropofol disodium 1200 mg; mean; read-out: Fospropofol AUC0-∞

{"columns": ["smiles.structure", "result.units", "AUC(0-inf)"],
 "data": [
  ["CC(C)c1cccc(C(C)C)c1OCOP(=O)(O)O", "ng·h/mL", 4500]
]}

====

# assay.notes: Study A16 Part 1: PK of single ascending oral doses of fospropofol disodium (200 to 2000 mg), fasted healthy adults
# Format: in vivo, human
# condition.details: both sexes, human, plasma; oral fospropofol disodium 200 mg; mean; read-out: Fospropofol t1/2 (converted)
reported.endpoint: half-life (min)

{"columns": ["smiles.structure", "reported.endpoint", "result.units", "meas.value"],
 "data": [
  ["CC(C)c1cccc(C(C)C)c1OCOP(=O)(O)O", "half-life", "min", 12.6]
]}

====

# assay.notes: Study A17: PK of fospropofol and propofol after single oral dose of fospropofol disodium 800 mg in subjects with migraine
# condition.details: female, human, plasma, po, 800 mg, Fospropofol AUC4, Mean, Mean, N = 12 migraine subjects; Fospropofol Disodium 800 mg oral

{"columns": ["compound", "AUC [ng·h/mL]"],
 "data": [
  ["CC(C)c1cccc(C(C)C)c1OCOP(=O)(O)O [fospropofol]", 4260]
]}

====

# assay.notes: Study No. 15-3 toxicokinetics of fospropofol and propofol in plasma
# Assay type: in vivo, Sprague-Dawley rats
# condition.details: male, Sprague-Dawley, rat, plasma, po, 50 mg/kg, oral gavage fospropofol disodium; Male; 50 mg/kg; Day 14; read-out: Fospropofol Cmax
reported.endpoint: Cmax (ng/mL)

{"columns": ["smiles.structure", "meas.value"],
 "data": [
  ["CC(C)c1cccc(C(C)C)c1OCOP(=O)(O)O", 149]
]}

====

# assay.notes: Study A16 Part 1: PK of single ascending oral doses of fospropofol disodium (200 to 2000 mg), fasted healthy adults
# Format: in vivo, human
# condition.details: both sexes, human, plasma, po, 800 mg, Propofol Cmax Minimum, oral fospropofol disodium 800 mg
reported.endpoint: Cmax (ng/mL)

{"columns": ["smiles.structure", "reported.endpoint", "meas.value"],
 "data": [
  ["CC(C)c1cccc(C(C)C)c1O", "Cmax", 127]
]}

====

# assay.notes: Study No. 15-3 toxicokinetics of fospropofol and propofol in plasma
# Type: in vivo, Sprague-Dawley rats
# condition.details: female, Sprague-Dawley, rat, plasma, po, 100 mg/kg, oral gavage fospropofol disodium; Female; 100 mg/kg; Day 1; read-out: Fospropofol Tmax

{"columns": ["compound", "Tmax (min)"],
 "data": [
  ["CC(C)c1cccc(C(C)C)c1OCOP(=O)(O)O [fospropofol]", 4.98]
]}

====

# assay.notes: Study A16 Part 2: PK of a single dose of 1200 mg fospropofol disodium following a high-fat meal
# Format: in vivo, human
# condition.details: both sexes, human, plasma; oral fospropofol disodium 1200 mg; Fed (Cohort 8), n= 12; median; read-out: Fospropofol Tmax

{"columns": ["smiles.structure", "Tmax (min)"],
 "data": [
  ["CC(C)c1cccc(C(C)C)c1OCOP(=O)(O)O", 19.8]
]}

====

# assay.notes: Study No. 15-3 toxicokinetics of fospropofol and propofol in plasma
# Type: in vivo, Sprague-Dawley rats
# condition.details: female, Sprague-Dawley, rat, plasma, po, 250 mg/kg, oral gavage fospropofol disodium; Female; 250 mg/kg; Day 14; read-out: Fospropofol Cmax

{"columns": ["smiles.structure", "Cmax [ng/mL]"],
 "data": [
  ["CC(C)c1cccc(C(C)C)c1OCOP(=O)(O)O", 8440]
]}

====

# assay.notes: Study No. 15-4 toxicokinetics of fospropofol and propofol in plasma
# Assay type: in vivo, Beagle dogs
# condition.details: male, beagle, dog, plasma, po, 100 mg/kg, oral gavage fospropofol disodium; Male; 100 mg/kg; Day 14
reported.endpoint: Cmax

{"columns": ["smiles.structure", "reported.endpoint", "meas.value"],
 "data": [
  ["CC(C)c1cccc(C(C)C)c1OCOP(=O)(O)O", "Cmax", "6340 ng/mL"]
]}

====

# assay.notes: Study A16 Part 1: PK of single ascending oral doses of fospropofol disodium (200 to 2000 mg), fasted healthy adults
# Format: in vivo, human
# condition.details: both sexes, human, plasma; oral fospropofol disodium 1600 mg; mean

{"columns": ["compound", "half-life [h]"],
 "data": [
  ["CC(C)c1cccc(C(C)C)c1O [propofol, 2,6-diisopropylphenol]", 2.95]
]}

====

# assay.notes: Study A16 Part 1: PK of single ascending oral doses of fospropofol disodium (200 to 2000 mg), fasted healthy adults
# Type: in vivo, human
# condition.details: both sexes, human, plasma, po, 200 mg, oral fospropofol disodium 200 mg; mean; read-out: Fospropofol Cmax
reported.endpoint: Cmax

{"columns": ["compound", "meas.value"],
 "data": [
  ["CC(C)c1cccc(C(C)C)c1OCOP(=O)(O)O [fospropofol]", "1980 ng/mL"]
]}

====

# assay.notes: Study No. 15-4 toxicokinetics of fospropofol and propofol in plasma
# Format: in vivo, Beagle dogs
# condition.details: male, beagle, dog, plasma, po, 160 mg/kg, oral gavage fospropofol disodium; Male; 160 mg/kg; Day 1; read-out: Fospropofol AUC0-6 hr

{"columns": ["compound", "AUC(0-t)"],
 "data": [
  ["CC(C)c1cccc(C(C)C)c1OCOP(=O)(O)O [fospropofol]", "13500 ng·h/mL"]
]}

====

# assay.notes: Study No. 15-3 toxicokinetics of fospropofol and propofol in plasma
# Assay type: in vivo, Sprague-Dawley rats
# condition.details: female, Sprague-Dawley, rat, plasma, po, 100 mg/kg, oral gavage fospropofol disodium; Female; 100 mg/kg; Day 14; read-out: Fospropofol Cmax
reported.endpoint: Cmax (ng/mL)

{"columns": ["smiles.structure", "meas.value"],
 "data": [
  ["CC(C)c1cccc(C(C)C)c1OCOP(=O)(O)O", 2560]
]}

====

# assay.notes: Study A16 Part 1: PK of single ascending oral doses of fospropofol disodium (200 to 2000 mg), fasted healthy adults
# Format: in vivo, human
# condition.details: both sexes, human, plasma; oral fospropofol disodium 1200 mg; mean; read-out: Fospropofol t1/2 (converted)
# Excerpt: Part 1 of Study A16 was a double-blind, randomized, placebo-controlled study to investigate the safety-tolerability and PK of oral administration of single ascending doses of fospropofol disodium to healthy adult male and female volunteers. Subjects were healthy adults (age 18-55 years inclusive, BMI 18-29.9 kg/m^2). […]

{"columns": ["smiles.structure", "half-life, min"],
 "data": [
  ["CC(C)c1cccc(C(C)C)c1OCOP(=O)(O)O", 20.4]
]}

====

# assay.notes: Study A16 Part 2: PK of a single dose of 1200 mg fospropofol disodium following a high-fat meal
# Assay type: in vivo, human
# condition.details: both sexes, human, plasma; oral fospropofol disodium 1200 mg; Fed (Cohort 8), n = 10/12; mean; read-out: Fospropofol AUC0-∞

{"columns": ["compound", "AUC(0-inf)"],
 "data": [
  ["CC(C)c1cccc(C(C)C)c1OCOP(=O)(O)O [fospropofol]", "1080 ng·h/mL"]
]}

====

# assay.notes: Study No. 15-4 toxicokinetics of fospropofol and propofol in plasma
# Assay type: in vivo, Beagle dogs
# condition.details: female, beagle, dog, plasma, po, 100 mg/kg, oral gavage fospropofol disodium; Female; 100 mg/kg; Day 1

{"columns": ["compound", "Cmax, ng/mL"],
 "data": [
  ["CC(C)c1cccc(C(C)C)c1OCOP(=O)(O)O [fospropofol]", 10100]
]}

====

# assay.notes: Study A16 Part 1: PK of single ascending oral doses of fospropofol disodium (200 to 2000 mg), fasted healthy adults
# Type: in vivo, human
# condition.details: both sexes, human, plasma, oral, 2000 mg, Propofol median Tmax, doses of 1600 or 2000 mg

{"columns": ["smiles.structure", "result.units", "Tmax"],
 "data": [
  ["CC(C)c1cccc(C(C)C)c1O", "min", 45]
]}
